- test details: blockers of Ca2+-induced mitochondrial swelling – biochemical, isolated mouse mitochondria, absorbance, primary screen (AID 602449);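 also: 0% = DMSO wells given calcium and 100% = 1 mM EGTA wells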
- cond: 30 min, at 10 µM, active compounds read high
Out of some 360,000 compounds screened, about 5,000 (1.4%) were called active. The list comes from a sample in which actives are over-represented; it also holds close analogues and randomly drawn compounds.
recorded endpoint: inhibition (%)

>>> value_reported("CC(=O)N(CC1CCCO1)C1(C(=O)NC2CCCC2)CCCCC1 (stereo unspecified)")
1.8
>>> value_reported("CC(=N\\NC(=O)c1cc(Br)ccc1O)/C(=N/O)C(=O)Nc1ccccc1")
76.8
>>> value_reported("Cc1cc(OCCCC(=O)NCCN2C(=O)S/C(=C\\c3cccnc3)C2=O)ccc1Cl")
84.3
>>> value_reported("COc1ccc(/C=C2/S/C(=N/N=C3\\CC4CCC3(C)C4(C)C)NC2=O)cc1 (stereo unspecified)")
-1.3
>>> value_reported("COc1cccc(NC(=O)CN(C)C(=O)CSC(=S)N2CCCC2)c1")
-0.1
>>> value_reported("CC(NS(=O)(=O)c1ccc(Cl)cc1)C(=O)Nc1ccc2c(c1)OCCO2 (stereo unspecified)")
-0.3
>>> value_reported("Cc1ccc2c(=O)cc(C(=O)NCCc3ccc(S(N)(=O)=O)cc3)oc2c1C")
-0.4
>>> value_reported("O=C(NCCN1C(=O)S/C(=C\\c2cccnc2)C1=O)c1cccc(OC(F)F)c1")
2.4
>>> value_reported("O=C(Nc1ccc2c(c1)OCCO2)C1CCCC1")
-1.6
>>> value_reported("CC(=O)N/N=C(\\C)c1ccc(Br)cc1Br")
-4.6
>>> value_reported("O=C(Nc1cccc(Cl)c1)c1cncn1-c1ccc(F)cc1")
-1.7
